The measurements presented in this section are drawn from PubChem BioAssay (EPA / NIEHS).

Read-out: Bcl-2 (BAX) gene, BAX (gene 581)
Test Name: LTEA_HepaRG_BAX: Life Technologies and Expression Analysis (LTEA) Assay for Bcl-2 (BAX) gene using HepaRG (AID 2283470)
Condition Set: mRNA level, 48 h; actives raise or lower the signal
The source made the active and inactive calls. The calls were made as follows: active = hit-call score of the fitted dose curve at least 0.9, where 1 is the maximum; inactive = score below 0.9.
Output constraint: value belongs to YES for active, NO for inactive

Here's what some known entries look like.
| Compound | Qualitative Label |
| --- | --- |
| CN(C)[C@@H]1C(=O)C(C(N)=O)=C(O)[C@@]2(O)C(=O)C3=C(O)c4c(O)cccc4[C@@](C)(O)[C@H]3[C@H](O)[C@@H]12 | NO |
| CON=C(C(=O)OC)c1ccccc1CON=C(C)c1cccc(C(F)(F)F)c1 | NO |
| C#CC(C)(C)NC(=O)c1cc(Cl)cc(Cl)c1 | NO |
| CSc1nnc(C(C)(C)C)c(=O)n1N | NO |
| CCCSP(=O)(OCC)SCCC | NO |

(Q) Hello, I am checking results. What call was entered for CCOP(=S)(OCC)SCCSCC ?
(A) NO

(Q) I'd appreciate the recorded outcome for O=C(O)c1cc(Oc2ccc(C(F)(F)F)cc2Cl)ccc1[N+](=O)[O-] from this test.
(A) NO

(Q) What did this assay record as the result for C[N+]1(C)CCCCC1 ?
(A) NO

(Q) Could you kindly confirm the outcome this assay logged for CC(=NC#N)N(C)Cc1ccc(Cl)nc1 ?
(A) NO

(Q) Answer briefly: the call reported for CCOP(=S)(OCC)Oc1ccc2c(C)c(Cl)c(=O)oc2c1 in this assay.
(A) NO
